molecular target: RSV prefusion F (preF), subtype B (respiratory syncytial virus, subtype B); test: BLI, IgG
measured_endpoint: pKd
Formally, pKd is defined as -log10 of the concentration c, with c in mol/L.

# example entries with known answers
Lab note: measured pKd of ADI-21013 (antibody, V domains shown) VH: QVQLQESGPGVVKPSETLSLTCTVSGGSISNTHSYWGWIRQSPGKGLEWIGSIYYTGSTYYNPSFRSRVTLSVDTSKNQFSLKLSSVTAADTAVYYCAAPDYFVLTDYKSTFDYWGRGALVTVSS VL: DIVMTQSPGTLSLSPGGRATLSCRASQSVGSSSLAWYQQKPGQAPRLLIYGASSRAAGIPDRFSGSGSGTDFTLTINRLEPEDFAMYYCQQYGSSPLTFGGGTKVEIK was 8.75

// field: pKd; key: ADI-21047 (antibody, V domains shown) VH: QVQLQQWGAGLLKPSETLSLTCAVYGGSFSGKYWSWIRQPPGKGLEWIGEFNHDGTTYYNPSLKSRVTISADTPKNQFSLTLHSVTAADTAVYYCARLTILSDWGQGTLVTVSS VL: DIRMTQSPSSLSASVGDRVTITCQASQDISNYLHWYQQKPGKAPKLLIYDASNLETGVPSRFSGSGSGTDFTFTIHSLQPEDLATYYCQQYYDLPRTFGQGTKLEIK ; value = 9.12

pKd for ADI-20988 (antibody, V domains shown, also called Ab 240) VH: EVQLVESGGEVKKPGASVKVSCKTSGYPFSNYGISWMRLAPGQGLEWMGWISSYNGNTYYTKKFQGRVSMTTDTSTSTAYMELRSLRSDDTAVYYCARDVPVIAAHTFEYWGQGTLVTVSS VL: ETTLTQSPLSLPVTLGQPASISCRSSESLVYSDGNTYLSWFQQRPGQSPRRIIYKVSNRDSGVPDRFSGSGSGTDFTLKISRVEAEDVGVYYCMQATHWPRDTFGQGTKVDIK is 8.89

Briefly, pKd measured for ADI-20998 (antibody, V domains shown) VH: QVQLVQSGGGVVQPGRSLRLSCAASGFTLSTYGMHWVRQAPGKGLEWVAVIYYDESNKFYADSVQGRFTISRDDSKNTLFLQMNSLRAEDTAVYYCARESRPRGYSYSDFDSWGQGTLVTVSS VL: QPGLTQPRSVSGSPGQSVTISCTGTSSDVGTFNYVSWYQQHPGKAPKLMIYDVNQRPSGVPDRFSGSKSGNTASLTISGLQAEDEADYYCCAYAGYYSFGGGTKLTVL : 8.87

For the next question, use this binder.
Reported pKd of ADI-20969 (antibody, V domains shown) VH: EVQLVESGGGLVKPGGSLRLSCAASGFKFSSYTMNWVRQAPGKGLEWVSSVSASSSYIFYADSVQGRFIISRDNAQNSLYLQMNSLRADDTAVYYCARDQYGPGHYYNPAWFDPWGQGTLVTVSS VL: QPVLTQPPSVSGAPGQRVTISCTGTSSNIGAGYDVHWYKQLPGTAPKVLIYGNTNRPSGIPDRFSGSKSGTSASLAITGLKAEDEADYYCQSYDRSGSKVFGTGTKLTVL : 9.39
